src = the supplement of paper PMC13380429

- Tested on: HepG2
- testDescription: drug sensitivity score (DSS) for viability; higher = more toxic; extreme values may be limits of the assay
- conditionDetails: 72 h
observedProperty: drug sensitivity score
Just the number, please.

Recorded results for 2 molecules are shown here.
# itemSmiles, drug sensitivity score
data = [
    ("CCn1cc(C(=O)O)c(=O)c2cc3c(cc21)OCO3", 0),
    ("O=C1C=CC(=O)C2=C1C1c3ccccc3C2c2ccccc21", 1.1),
]

Measured drug sensitivity score, CC(C)(C)C(=O)/C(=N/c1ccc(Cl)cc1)NNc1ccc(Cl)cc1 : 0

---

- Tested on: Vero E6
- testDescription: cell viability relative to DMSO; higher = less toxic
- conditionDetails: 72 h; 1000 nM
observedProperty: cell viability

Recorded results for 5 compounds are shown here.
# compound, observedProperty, result
data = [
    ("Fc1ccccc1-c1nc2ccn(Cc3ccc(-c4ccc(C(F)(F)F)cc4C(F)(F)F)nn3)cc-2n1", "cell viability", "96.1%"),
    ("CCn1c(=O)c2c(nc(/C=C/c3ccc(OC)c(OC)c3)n2C)n(CC)c1=O", "cell viability", "96.4%"),
    ("Cc1ccc(S(=O)(=O)Nc2ccc3c(c2)c(C(=O)C(F)(F)F)cn3CC(=O)N[C@@H](CC(C)C)C(=O)O)cc1", "cell viability", "94.7%"),
    ("COc1cc(CN(CCN)C(=O)c2cccs2)ccc1OCc1ccccc1", "cell viability", "98%"),
    ("Nc1nc(Nc2ccccc2)nc2c1ncn2[C@@H]1O[C@H](CO)[C@@H](O)[C@H]1O", "cell viability", "96.3%"),
]

Measured cell viability, CC1(C)CC(=O)c2c(C(F)(F)F)nn(-c3ccc(C(N)=O)c(N[C@H]4CC[C@H](O)CC4)c3)c2C1 : 44.9%

Measured cell viability, Nc1ncnc2c1ncn2[C@@H]1O[C@H](CO)C[C@H]1O [cordycepin] : 98.1%

---

- Tested on: Caco-2
- testDescription: cell viability relative to DMSO; higher = less toxic
- conditionDetails: 72 h; 1000 nM
observedProperty: cell viability (%)
A number alone suffices; assume %.

Measured cell viability, CC(C)c1nc(CN(C)C(=O)N[C@H](C(=O)N[C@@H](Cc2ccccc2)C[C@H](O)[C@H](Cc2ccccc2)NC(=O)OCc2cncs2)C(C)C)cs1 : 96.9

Measured cell viability, Cc1nccn1CC1CCc2c(c3ccccc3n2C)C1=O (stereo not given) : 81.2

Measured cell viability, O=C(O)/C=C/c1ccc(Cn2ccnc2)cc1 : 98.6

Measured cell viability, [O-][n+]1ccccc1[S-].[O-][n+]1ccccc1[S-].[Zn+2] : 13.4

Measured cell viability, CCS(=O)(=O)c1ccc2oc(-c3ccc4ccccc4c3)nc2c1 : 91.8

---

Quick list: cell viability per entry.
- Test system: Calu-3
- testDescription: cell viability relative to DMSO; higher = less toxic
- conditionDetails: 72 h; 10000 nM
A number alone suffices; assume %.

Recorded results for 3 molecules are shown here.
# molecule, cell viability, %
records = [
    ("Cc1nccn1CC1CCc2c(c3ccccc3n2C)C1=O (stereo unspecified)", 89.2),
    ("O=C(O)c1cccnc1C(=O)O", 101),
    ("Cc1[nH]c(/C=C2\\C(=O)Nc3cc(-c4ccccc4)ccc32)c(C)c1CCC(=O)O [SU16f]", 104),
]

Measured cell viability, Cc1cc(C)c(S(=O)(=O)Nc2cccc(C(F)(F)F)c2)c(C)c1 : 99.4

Measured cell viability, CC(=O)N[C@@H](CC(=O)O)C(=O)N[C@@H](CCC(=O)O)C(=O)O : 105

Measured cell viability, Nc1ccn([C@H]2CC[C@@H](CO)O2)c(=O)n1 : 106

Measured cell viability, CC1(C)CC(=O)c2c(C(F)(F)F)nn(-c3ccc(C(N)=O)c(N[C@H]4CC[C@H](O)CC4)c3)c2C1 : 35.1

Measured cell viability, OB1OCc2cc(F)ccc21 : 105

---

- Tested on: U2OS
- testDescription: drug sensitivity score (DSS) for viability; higher = more toxic; extreme values may be limits of the assay
- conditionDetails: 72 h
observedProperty: drug sensitivity score
Just the number, please.

Recorded results for 2 compounds are shown here.
# compound, targetOrSystem, resultNumber
measured = [
    ("C/C(=N\\c1ccccc1N)c1c(C)cc(=O)n(O)c1O [SUN-B-8155]", "U2OS", 0),
    ("CCCCC1(COC(=O)CCC(=O)O)C(=O)N(c2ccccc2)N(c2ccccc2)C1=O [suxibuzone]", "U2OS", 0),
]

// switching to the query compound
Measured drug sensitivity score, COc1c(C)c2c(c(O)c1C/C=C(\C)CCC(=O)OCCN1CCOCC1)C(=O)OC2 [mycophenolate-mofetil] : 7.2

---

- System: HepG2
- testDescription: cell viability relative to DMSO; higher = less toxic
- conditionDetails: 72 h; 10 nM
Quick list: cell viability per entry.
A number alone suffices; assume %.

Recorded results for 6 molecules are shown here.
# molecule, resultNumber
rows = [
    ("c1ccc2c(c1)CN1CCCC1=N2 [desoxypeganine]", 75.1),
    ("Cc1ncc(C[n+]2csc(CCOP(=O)(O)OP(=O)(O)O)c2C)c(N)n1 [thiamine-pyrophosphate]", 112),
    ("NC(CO)C(=O)NNCc1ccc(O)c(O)c1O (configuration not stated) [benserazide]", 97.4),
    ("CN(C)CCC(c1ccccc1)c1ccccn1 (configuration not stated) [pheniramine]", 99.8),
    ("C1COC(NC(C2CC2)C2CC2)=N1 [rilmenidine]", 110),
    ("CC(=O)N[C@@H](CC(=O)O)C(=O)N[C@@H](CCC(=O)O)C(=O)O [spaglumic-acid]", 108),
]

Measured cell viability, NC(=O)C[S+]([O-])C(c1ccccc1)c1ccccc1 (configuration not stated) [MODAFINIL] : 103

Measured cell viability, NC(=O)Cc1cccc(C(=O)c2ccccc2)c1N [nepafenac] : 94.8

Measured cell viability, CC(=O)OC[C@H]1O[C@@H](n2ccc(=O)[nH]c2=O)[C@H](OC(C)=O)[C@@H]1OC(C)=O [uridine-triacetate] : 113

Measured cell viability, O=C(O)Cn1nnc(-c2cc(N3CCC(Oc4cc(F)ccc4Br)CC3)no2)n1 [MK-8245] : 95.8

Measured cell viability, C[C@@H](NC(=O)c1ncnc(N)c1Cl)c1ncc(C(=O)Nc2cc(C(F)(F)F)c(Cl)cn2)s1 [MLN2480] : 102

Measured cell viability, C[C@@H]1NC(=O)[C@@H](N)CNC(=O)[C@H](C2CCNC(=N)N2)NC(=O)/C(=C/NC(N)=O)NC(=O)[C@H](CNC(=O)CC(N)CCCN)NC1=O.N=C1NCC[C@H]([C@@H]2NC(=O)/C(=C/NC(N)=O)NC(=O)[C@H](CNC(=O)C[C@@H](N)CCCN)NC(=O)[C@H](CO)NC(=O)[C@@H](N)CNC2=O)N1 [capreomycin] : 102

---

- Test system: U2OS
- testDescription: cell viability relative to DMSO; higher = less toxic
- conditionDetails: 72 h; 10000 nM
Exam item: assign t to entries whose cell viability is below 90% and f to entries at or above 90%. Note that a value of exactly 90% receives f.

Reference set, count: 3
# compound, classLabel
rows = [
    ("O=C(O)CCc1cc(I)c(Oc2ccc(O)cc2)c(I)c1", "f"),
    ("C#CC1(OCC(O)CN2CCN(c3cccc(C(F)(F)F)c3)CC2)CCCCC1 (stereo not given)", "f"),
    ("c1ccc2c(c1)CN1CCCC1=N2", "f"),
]

IN: # TODO verify cell viability < 90% strictly for this compound: COc1cc(O)c2c(c1)C(=O)c1cc(C)cc(O)c1C2=O
OUT: f

IN: # TODO verify cell viability < 90% strictly for this compound: Cc1c(C(=O)N2CCOc3ccc(-c4ccc(N)nc4)cc3C2)ccc(S(C)(=O)=O)c1F
OUT: t

IN: # TODO verify cell viability < 90% strictly for this compound: C#C[C@]1(O)CC[C@H]2[C@@H]3CCC4=CC(=O)CC[C@]4(C)[C@H]3CC[C@@]21C
OUT: f

---

- Tested on: HepG2
- testDescription: cell viability relative to DMSO; higher = less toxic
- conditionDetails: 72 h; 1 nM
observedProperty: cell viability (%)
A number alone suffices; assume %.

Recorded results for 8 compounds are shown here.
# compound, targetOrSystem, cell viability / %
rows = [
    ("NC(=O)c1cnccn1 [pyrazinamide]", "HepG2", 103),
    ("N=C(N)c1cc2ccc(OC(=O)c3cccs3)cc2s1 [BCX-1470]", "HepG2", 112),
    ("Cc1ccc(-c2n[nH]c3c2C(c2cccc(O)c2)N(c2ccc(C(=O)O)cc2)C3=O)cc1 (centres undefined)", "HepG2", 111),
    ("Clc1ccc(C(c2ccc(Cl)cc2)C(Cl)(Cl)Cl)cc1 [4,4'-DDT]", "HepG2", 98.5),
    ("CCOC(=O)c1ccc(N)cc1 [benzocaine]", "HepG2", 98.6),
    ("CC(C)N[C@H]1CCn2c(=O)[nH]c3cccc(c32)[C@@H]1O [zilpaterol]", "HepG2", 105),
    ("O=C(Nc1ccccc1)N1CCC(Cc2cnc3ccccc3c2)CC1 [PF-750]", "HepG2", 96.6),
    ("O=C1NC(=O)c2cc(Nc3ccc(F)cc3)c(Nc3ccc(F)cc3)cc21", "HepG2", 101),
]

// switching to the query compound
Form field, cell viability with HepG2, item CN1CCCC(n2nc(Cc3ccc(Cl)cc3)c3ccccc3c2=O)CC1 (centres undefined) [azelastine] : 113
